# assay_context: buffer; pH 7.4; 200.0 µM
measurement_label: solubility kinetic

Solved cases (2 shown):
Asked: Consider the molecule CN(C)S(=O)(=O)c1cccc(C(=O)N2CCN(C(=O)C3CCCO3)CC2)c1 (stereo not drawn) and give its measured solubility kinetic.
Given back: > 59.3 µg/mL

Asked: # input molecule: CC(C)[C@H](NC(=O)N1CC(=O)Nc2ccccc21)C(=O)N1CCC[C@@H]1C(=O)O ; wanted: its solubility kinetic
Given back: > 58.3 µg/mL

Next item in the queue.
Asked: Reported solubility kinetic, molecule CC(=O)Nc1ccc(S(=O)(=O)Nc2ccn(Cc3ccccc3Cl)n2)cc1 : ____
Given back: > 60.7 µg/mL

====

# assay_context: buffer; pH 7.4; 200.0 µM
I'd appreciate it if you could supply solubility kinetic values for the items below.

Asked: Reported solubility kinetic for O=C(CC1(CC(=O)N2CCOCC2)CCCC1)Nc1ccc(F)cc1 : what is it?
Given back: > 52.3 µg/mL

Asked: Name the recorded solubility kinetic for CCNc1nc(OC)nc(SCC(=O)Nc2ccccc2)n1 .
Given back: > 47.9 µg/mL

Asked: Need solubility kinetic, item COc1ccc(C(=O)CSc2nccn2C)c(OC)c1
Given back: > 43.9 µg/mL

Asked: Would you mind telling me what solubility kinetic value was observed for Cn1c(=O)c2c(ncn2CC(=O)OCC(=O)Nc2ccc(F)cc2Cl)n(C)c1=O ?
Given back: > 63.6 µg/mL

Asked: Given the entry CCOc1cc(CC(=O)N[C@@H](CC(C)C)c2ccccc2N2CCCCC2)ccc1C(=O)O , report its measured solubility kinetic.
Given back: > 67.9 µg/mL

Provide the reported solubility kinetic of each entry below, same order.
1. CCOc1ncccc1C(=O)OCC(=O)NCc1ccc2c(c1)OCO2
2. COc1ccc2nc(/N=C/c3cccc(OC)c3O)sc2c1
3. O=C(CSc1nccc(-c2cccs2)n1)Nc1ccc(Cl)cc1
4. N#Cc1c(-c2ccc(F)cc2)ccnc1N1CCOCC1
5. COc1ccc(C(=O)NCc2cc3ccccc3n2C)cc1
6. COc1ccccc1OCCn1c(=O)oc2ccc(C)cc21

Given back:
1. > 53.8 µg/mL
2. > 47.2 µg/mL
3. 1.4 µg/mL
4. > 42.5 µg/mL
5. 3.7 µg/mL
6. 4.2 µg/mL

Report solubility kinetic for every entry below.
1. Cc1cc2oc(=O)cc(CN3CCCCC3)c2cc1C
2. O=C(COC(=O)CNC(=O)c1ccccc1)NCc1ccc2c(c1)OCO2
3. CCOC(=O)NC(=S)Nc1ccc(C(C)(C)C)cc1
4. Cc1nc2ccc(Cl)cc2c(=O)n1-c1ccc([N+](=O)[O-])cc1
5. Cc1cc(C)n(CCCNC(=O)c2ccc(C)o2)n1

Given back:
< 0.6 µg/mL
> 55.6 µg/mL
1.1 µg/mL
3.7 µg/mL
> 39.2 µg/mL

For each of the compounds below, state solubility kinetic.
1. Cc1ccc(-c2[nH]c3ccccc3c2SCCN)cc1
2. CCC(CC)C(=O)Nc1cccc(C(=O)NCCc2ccccc2)c1
3. COc1ccccc1C(=O)NC(=O)COC(=O)CNC(=O)c1ccccc1F
4. CCNC(=S)Nc1sc2c(c1C#N)CCC(C)C2 (stereo unspecified)

Given back:
1: > 42.4 µg/mL; 2: 40.8 µg/mL; 3: > 58.3 µg/mL; 4: 1.1 µg/mL

Working through the 6 compounds below one at a time, give solubility kinetic for each.
1. Clc1ccc2c(NCc3ccccn3)ccnc2c1
2. Cc1ccc(C)c(C(=O)NC(C)CCc2ccccc2)c1 (stereo unspecified)
3. CCC(CC)NC(=O)Nc1ccc(C)cc1
4. CC(=O)Nc1ccc(NC(=O)CCSCCc2ccccn2)cc1
5. Cc1cccc(OC(=O)c2cccnc2)c1
6. O=C(Nc1ccsc1C(=O)O)c1cccc(C(F)(F)F)c1

Given back:
["> 40.5 µg/mL", "0.7 µg/mL", "21.4 µg/mL", "> 51.5 µg/mL", "12.6 µg/mL", "> 47.3 µg/mL"]

Batch of 3 compounds: report solubility kinetic for each.
1. CCOC(=O)c1cc(CC)sc1/N=C/C1C(=O)CCCC1=O
2. COc1ccc(C(=O)OCC(=O)c2ccc[nH]2)c(OC)c1
3. O=C(c1ccccc1CCc1ccccc1)N1CCCC1

Given back:
19.5 µg/mL
> 43.4 µg/mL
40.5 µg/mL

Hi there! I need solubility kinetic for each item below, if you can.
1. COC(=O)c1ccc(NC(=S)N2CCN(C)CC2)cc1
2. CC1=Nc2cc(C(=O)O)ccc2Sc2c(C)ccc(C)c21
3. O=C(O)C1(c2ccccc2)CCC(Nc2ccccc2)C1 (stereo unspecified)
4. Cc1cc(=O)oc2cc(NC(=O)c3cccc(F)c3)ccc12
5. Cc1cc(C)c(C)c(S(=O)(=O)NCCCN2CCOCC2)c1C
6. Oc1ccc2c(c1)c1c3n2CCNC3CCC1 (stereo unspecified)

Given back:
1. > 44 µg/mL
2. 42.1 µg/mL
3. 39.7 µg/mL
4. < 0.6 µg/mL
5. > 51.1 µg/mL
6. 31.3 µg/mL

# batch: return solubility kinetic for each of the 5 compounds below
1. O=C(COc1ccc(Cl)cc1)Nc1ccc2c(c1)OCO2
2. Cc1ccccc1OCC(=O)Nc1ccc(N2CCN(C)CC2)c(Cl)c1
3. O=C(NCCc1ccccc1)C(=S)N1CCCCC1
4. C=CCNC(=S)Nc1cc(C)ccn1
5. Cn1c(=O)c2[nH]c(C3CCCC3)nc2n(C)c1=O

Given back:
["< 0.7 µg/mL", "12.3 µg/mL", "> 41.5 µg/mL", "> 31.1 µg/mL", "> 37.2 µg/mL"]

Asked: Please look up its solubility kinetic: CCC1CCCCN1C(=O)CSc1nc(N)cc(N)n1 (stereo unspecified)
Given back: 43.1 µg/mL
